assay: Aqueous solubility of the compound in phosphate buffered saline at pH 6.8 after 24 hrs by HPLC-UV based shake-flask method; format: physicochemical; conditions: phosphate buffered saline, pH 6.8
MEASUREMENT KIND: solubility thermodynamic at 24 h (µM)

Below, each entry is followed by its recorded solubility thermodynamic at 24 h result.
CCN(CC)CCCOc1ccc2nc3n(c(=O)c2c1)CCc1c-3[nH]c2ccccc12.Cl 180
Cl.O=c1c2cc(O)ccc2nc2n1CCc1c-2n(CCCN2CCCCC2)c2ccccc12 1710

[1] Cl.O=c1c2cc(OCCCN3CCCCC3)ccc2nc2n1CCc1c-2[nH]c2ccccc12
[2] CCN(CC)CCCn1c2c(c3ccccc31)CCn1c-2nc2ccc(O)cc2c1=O.Cl
Please indicate which item has the smaller measured solubility thermodynamic at 24 h: 1 versus 2 Please indicate the selected item by its label.
1
(1: 21.8 µM, 2: 7400 µM)

###

assay: Aqueous solubility of the compound in phosphate buffered saline at pH 7.4 after 24 hrs by HPLC-UV based shake-flask method; format: physicochemical; conditions: phosphate buffered saline, pH 7.4
MEASUREMENT KIND: solubility thermodynamic at 24 h (µM)

[A] CCN(CC)CCCn1c2c(c3ccccc31)CCn1c-2nc2ccc(O)cc2c1=O.Cl
[B] Cl.O=c1c2cc(OCCCN3CCCCC3)ccc2nc2n1CCc1c-2[nH]c2ccccc12
# compare solubility thermodynamic at 24 h for A vs B ; return the one with the smaller value Lab log: write the label of the selected item as the result.
B
(B: 5.62 µM, A: 1900 µM)

[a] CCN(CC)CCCOc1ccc2nc3n(c(=O)c2c1)CCc1c-3[nH]c2ccccc12.Cl
[b] Cl.O=c1c2cc(O)ccc2nc2n1CCc1c-2n(CCCN2CCCCC2)c2ccccc12
Hey, between a and b which has a smaller measured solubility thermodynamic at 24 h? Lab log: write the label of the selected item as the result.
a
(a: 45.8 µM, b: 441 µM)
